Test system: HCC827 (EGFR Del) NSCLC cells
measurement.description: Cell proliferation assay (MTS cell viability)
Format: cell-based
assay.context: Homo sapiens, 72 h; HCC827 cells, 3 days of exposure, MTS
observable: IC50

These solved cases illustrate the format of a correct answer.
Please give the measured IC50 for this molecule: C=C(CN1CCOCC1)C(=O)Nc1cccc(Nc2ncc(Cl)c(Nc3ccccc3C(=O)C(=O)N(C)C)n2)c1 [Example 112]
30 nM

Requested field: IC50. Item: C=CC(=O)N1CCC(NC(=O)C(=O)c2ccccc2Nc2nc(Nc3ccc(N4CCN(C)CC4)cc3OC)ncc2Cl)CC1 [Example 56]
> 3000 nM

Next:
So what does the record say about IC50 for CCOC(=O)C(=O)c1ccccc1Nc1nc(Nc2ccc(N3CCC(N(C)C)CC3)cc2OC)ncc1Cl [Example 1] ?
> 3000 nM

---

assayed.system: EGFR (T790M) (h) (Homo sapiens (Human), UniProt P00533, T790M)
Sequence (P00533 25-1210 T790M): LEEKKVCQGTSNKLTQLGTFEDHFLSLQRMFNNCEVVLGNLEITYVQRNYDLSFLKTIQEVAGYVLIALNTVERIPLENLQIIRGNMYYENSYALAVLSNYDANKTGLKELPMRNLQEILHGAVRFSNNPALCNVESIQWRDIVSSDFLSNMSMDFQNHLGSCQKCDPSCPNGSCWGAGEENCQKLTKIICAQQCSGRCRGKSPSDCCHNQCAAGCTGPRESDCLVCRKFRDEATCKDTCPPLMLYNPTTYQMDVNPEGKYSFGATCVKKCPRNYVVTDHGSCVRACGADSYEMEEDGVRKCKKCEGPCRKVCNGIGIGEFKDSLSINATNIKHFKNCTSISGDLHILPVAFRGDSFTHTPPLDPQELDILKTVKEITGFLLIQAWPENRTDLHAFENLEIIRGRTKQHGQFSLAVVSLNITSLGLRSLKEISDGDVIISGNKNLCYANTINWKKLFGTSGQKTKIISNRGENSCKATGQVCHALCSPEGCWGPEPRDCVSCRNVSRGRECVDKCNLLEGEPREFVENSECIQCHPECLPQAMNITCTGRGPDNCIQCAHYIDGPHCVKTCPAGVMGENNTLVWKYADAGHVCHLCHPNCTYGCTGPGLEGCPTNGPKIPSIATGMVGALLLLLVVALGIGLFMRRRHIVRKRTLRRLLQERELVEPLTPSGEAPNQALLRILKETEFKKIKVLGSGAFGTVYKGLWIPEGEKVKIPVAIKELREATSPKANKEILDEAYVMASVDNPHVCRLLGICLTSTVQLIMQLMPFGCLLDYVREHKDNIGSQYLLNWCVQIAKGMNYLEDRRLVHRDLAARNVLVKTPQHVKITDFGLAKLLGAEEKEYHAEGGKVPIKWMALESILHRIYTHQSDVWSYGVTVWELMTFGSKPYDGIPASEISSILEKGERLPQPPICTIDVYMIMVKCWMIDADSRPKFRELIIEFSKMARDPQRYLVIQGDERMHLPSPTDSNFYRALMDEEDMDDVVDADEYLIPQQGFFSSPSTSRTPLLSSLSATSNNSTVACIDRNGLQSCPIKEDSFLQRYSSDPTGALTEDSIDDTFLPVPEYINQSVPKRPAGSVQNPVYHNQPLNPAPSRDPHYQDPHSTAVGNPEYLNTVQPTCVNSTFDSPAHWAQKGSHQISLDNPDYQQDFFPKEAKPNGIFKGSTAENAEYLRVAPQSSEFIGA
measurement.description: Kinase assay, single dose inhibition (Millipore, 33P-ATP filter binding)
Type: biochemical
assay.context: 0.1 μM test compound, 10 μM ATP; remaining activity relative to DMSO control = 100%
observable: Activity (control) % EGFR (T790M) (h) (%)
Quick reminder: number only, in %, skip the unit.

Requested read-out Activity (control) % EGFR (T790M) (h), target or system EGFR (T790M) (h) (Homo sapiens (Human), UniProt P00533, T790M), entry C=C(CN(C)CCN(C)C)C(=O)Nc1ccc(OC)c(Nc2ncc(Cl)c(Nc3ccccc3C(=O)C(=O)N(C)C)n2)c1
5

Report Activity (control) % EGFR (T790M) (h) for C=C(CN1CCCCC1)C(=O)Nc1cccc(Nc2ncc(Cl)c(Nc3ccccc3C(=O)C(=O)N(C)C)n2)c1 tested on EGFR (T790M) (h) (Homo sapiens (Human), UniProt P00533, T790M).
16

For EGFR (T790M) (h) (Homo sapiens (Human), UniProt P00533, T790M), provide Activity (control) % EGFR (T790M) (h) of COc1cc(Nc2ncc(Cl)c(Nc3ccccc3C(=O)C(=O)N(C)C)n2)ccc1N1CCN(C)CC1 please.
54

Please provide the recorded Activity (control) % EGFR (T790M) (h) for CCN(CC)C(=O)C(=O)c1ccccc1Nc1nc(Nc2ccc(N3CCN(C)CC3)c(OC)c2)ncc1Cl , tested on EGFR (T790M) (h) (Homo sapiens (Human), UniProt P00533, T790M).
84

More entries:
Form entry - test system: EGFR (T790M) (h) (Homo sapiens (Human), UniProt P00533, T790M); read-out: Activity (control) % EGFR (T790M) (h); compound: C=CC(=O)Nc1ccc(OC)c(Nc2ncc(Cl)c(Nc3ccccc3C(=O)C(=O)N3CCN(C)CC3)n2)c1
5

Identify the measured Activity (control) % EGFR (T790M) (h) of C=CC(=O)Nc1cccc(Nc2ncc(Cl)c(Nc3ccccc3C(=O)C(=O)N(C)C)n2)c1 for EGFR (T790M) (h) (Homo sapiens (Human), UniProt P00533, T790M).
79

Missing value: Activity (control) % EGFR (T790M) (h), EGFR (T790M) (h) (Homo sapiens (Human), UniProt P00533, T790M), entry COc1ccc(NC(=O)/C=C/CN(C)C)cc1Nc1ncc(Cl)c(Nc2ccccc2C(=O)C(=O)N(C)C)n1 . Fill in?
42

---

assayed.system: EGFR (ErbB1) T790M L858R (Homo sapiens (Human), UniProt P00533, L858R/T790M)
Sequence (P00533 25-1210 T790M/L858R): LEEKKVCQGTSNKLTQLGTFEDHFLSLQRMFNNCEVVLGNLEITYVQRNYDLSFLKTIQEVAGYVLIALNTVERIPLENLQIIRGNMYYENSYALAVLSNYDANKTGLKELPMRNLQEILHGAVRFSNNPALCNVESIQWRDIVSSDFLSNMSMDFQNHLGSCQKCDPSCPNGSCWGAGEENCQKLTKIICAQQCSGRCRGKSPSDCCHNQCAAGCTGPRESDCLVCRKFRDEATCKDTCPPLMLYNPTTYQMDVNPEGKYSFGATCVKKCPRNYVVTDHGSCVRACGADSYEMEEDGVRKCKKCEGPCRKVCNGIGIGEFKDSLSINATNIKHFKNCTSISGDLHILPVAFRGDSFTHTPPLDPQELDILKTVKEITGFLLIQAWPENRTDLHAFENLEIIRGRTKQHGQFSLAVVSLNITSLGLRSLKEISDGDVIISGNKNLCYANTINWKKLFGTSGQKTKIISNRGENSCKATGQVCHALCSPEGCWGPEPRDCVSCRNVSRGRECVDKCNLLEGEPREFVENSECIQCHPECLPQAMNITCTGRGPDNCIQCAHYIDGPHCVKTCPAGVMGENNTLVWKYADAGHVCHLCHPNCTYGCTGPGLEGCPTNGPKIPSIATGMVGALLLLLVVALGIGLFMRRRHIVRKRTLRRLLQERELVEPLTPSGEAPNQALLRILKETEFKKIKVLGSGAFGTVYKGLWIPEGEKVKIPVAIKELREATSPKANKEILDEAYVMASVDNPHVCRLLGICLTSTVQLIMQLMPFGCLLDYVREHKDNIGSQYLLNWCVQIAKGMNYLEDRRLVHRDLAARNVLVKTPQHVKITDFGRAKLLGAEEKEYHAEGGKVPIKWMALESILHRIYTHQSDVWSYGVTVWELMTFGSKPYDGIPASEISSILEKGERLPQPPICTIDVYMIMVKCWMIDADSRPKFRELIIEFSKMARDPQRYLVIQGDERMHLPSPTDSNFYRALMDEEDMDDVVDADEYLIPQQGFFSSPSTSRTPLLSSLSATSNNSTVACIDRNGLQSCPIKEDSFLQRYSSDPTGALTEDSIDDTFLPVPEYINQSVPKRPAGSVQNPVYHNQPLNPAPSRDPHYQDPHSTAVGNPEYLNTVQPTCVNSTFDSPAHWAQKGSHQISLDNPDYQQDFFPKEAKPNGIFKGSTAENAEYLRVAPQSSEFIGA
assay.context: read-out: IC50, resistant mutant EGFR L858R/T790M
observable: IC50

Record request: IC50 value, item C#Cc1cccc(Nc2ncnc3cc4c(cc23)OCCOCCOCCO4)c1 [Icotinib, reference compound]
≥ 16.6 nM

---

assayed.system: ALK (h) (Homo sapiens (Human), UniProt Q9UM73)
Sequence (Q9UM73 19-1620): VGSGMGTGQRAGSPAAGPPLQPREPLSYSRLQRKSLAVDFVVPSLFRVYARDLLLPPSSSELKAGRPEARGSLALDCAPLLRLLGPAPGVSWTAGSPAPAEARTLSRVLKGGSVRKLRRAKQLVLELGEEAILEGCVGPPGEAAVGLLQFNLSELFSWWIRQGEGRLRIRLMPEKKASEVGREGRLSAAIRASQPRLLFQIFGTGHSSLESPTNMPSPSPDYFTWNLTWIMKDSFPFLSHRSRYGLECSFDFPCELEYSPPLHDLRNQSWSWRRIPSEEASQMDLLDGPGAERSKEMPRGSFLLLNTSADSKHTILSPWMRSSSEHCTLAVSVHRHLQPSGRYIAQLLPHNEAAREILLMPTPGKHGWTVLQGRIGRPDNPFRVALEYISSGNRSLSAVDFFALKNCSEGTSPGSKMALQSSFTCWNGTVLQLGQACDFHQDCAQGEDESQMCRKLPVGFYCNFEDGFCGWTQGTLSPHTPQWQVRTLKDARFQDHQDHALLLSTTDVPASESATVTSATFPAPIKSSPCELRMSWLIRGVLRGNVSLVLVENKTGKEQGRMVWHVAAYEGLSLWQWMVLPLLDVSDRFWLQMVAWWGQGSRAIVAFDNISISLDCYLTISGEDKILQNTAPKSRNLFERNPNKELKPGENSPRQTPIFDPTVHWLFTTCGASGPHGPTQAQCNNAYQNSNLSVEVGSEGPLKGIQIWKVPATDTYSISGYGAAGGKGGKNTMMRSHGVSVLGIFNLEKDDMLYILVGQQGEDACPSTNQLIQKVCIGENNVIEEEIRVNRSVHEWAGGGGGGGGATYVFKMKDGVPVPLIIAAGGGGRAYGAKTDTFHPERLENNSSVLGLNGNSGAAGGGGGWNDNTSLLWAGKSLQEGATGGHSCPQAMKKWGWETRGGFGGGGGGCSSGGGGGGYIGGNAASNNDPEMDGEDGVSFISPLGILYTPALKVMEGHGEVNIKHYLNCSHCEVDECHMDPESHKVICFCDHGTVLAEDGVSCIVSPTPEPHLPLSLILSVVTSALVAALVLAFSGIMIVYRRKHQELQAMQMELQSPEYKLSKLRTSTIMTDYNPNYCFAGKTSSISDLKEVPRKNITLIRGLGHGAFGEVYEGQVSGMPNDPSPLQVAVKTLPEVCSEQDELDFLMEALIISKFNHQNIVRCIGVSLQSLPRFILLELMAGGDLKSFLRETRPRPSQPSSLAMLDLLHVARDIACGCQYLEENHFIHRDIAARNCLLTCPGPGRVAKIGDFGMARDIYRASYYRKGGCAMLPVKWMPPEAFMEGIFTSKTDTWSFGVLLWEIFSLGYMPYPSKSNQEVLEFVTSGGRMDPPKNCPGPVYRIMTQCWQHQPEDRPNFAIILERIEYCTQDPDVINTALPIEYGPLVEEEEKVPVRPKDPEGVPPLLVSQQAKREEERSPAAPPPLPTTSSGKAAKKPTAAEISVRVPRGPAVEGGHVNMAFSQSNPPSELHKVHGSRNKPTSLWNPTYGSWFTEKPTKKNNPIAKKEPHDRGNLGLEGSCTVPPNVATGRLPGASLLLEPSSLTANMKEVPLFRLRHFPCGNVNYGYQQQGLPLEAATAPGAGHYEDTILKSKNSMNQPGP
measurement.description: Kinase assay, single dose inhibition (Millipore, 33P-ATP filter binding)
Format: biochemical
assay.context: 0.1 μM test compound, 10 μM ATP; remaining activity relative to DMSO control = 100%
Activity (control) % ALK (h) values by entry
Give a bare numeral; the unit % is implied.

Some solved cases for reference:
Give the reported Activity (control) % ALK (h) for C=CC(=O)Nc1cc(Nc2ncc(Cl)c(Nc3ccccc3C(=O)C(=O)N(CC)CC)n2)ccc1OC [Example 132] (system: ALK (h) (Homo sapiens (Human), UniProt Q9UM73)).
16

Any idea what Activity (control) % ALK (h) came out for C=C(CN(C)CCN(C)C)C(=O)Nc1ccc(OC)c(Nc2ncc(Cl)c(Nc3ccccc3C(=O)C(=O)N(C)C)n2)c1 [Example 126] on ALK (h) (Homo sapiens (Human), UniProt Q9UM73)?
19

---
What measured Activity (control) % ALK (h) is associated with COc1ccc(NC(=O)/C=C/CN2CCCCC2)cc1Nc1ncc(Cl)c(Nc2ccccc2C(=O)C(=O)N(C)C)n1 [Example 72] on ALK (h) (Homo sapiens (Human), UniProt Q9UM73)?
14

What measured Activity (control) % ALK (h) is associated with C=C(CN1CCOCC1)C(=O)Nc1cccc(Nc2ncc(Cl)c(Nc3ccccc3C(=O)C(=O)N(C)C)n2)c1 [Example 112] on ALK (h) (Homo sapiens (Human), UniProt Q9UM73)?
21

---

assayed.system: ALK (h) (Homo sapiens (Human), UniProt Q9UM73)
measurement.description: Kinase assay, single dose inhibition (Millipore, 33P-ATP filter binding)
Assay type: biochemical
assay.context: 0.1 μM test compound, 10 μM ATP; remaining activity relative to DMSO control = 100%
observable: Activity (control) % ALK (h) (%)
Please respond with the number in % and leave the unit unwritten.

Returns the measured Activity (control) % ALK (h) for the input compound. Input: C=C(CN1CCCCC1)C(=O)Nc1ccc(OC)c(Nc2ncc(Cl)c(Nc3ccccc3C(=O)C(=O)N(C)C)n2)c1
17

// Activity (control) % ALK (h) lookup, key: C=C(CN1CCCCC1)C(=O)Nc1cccc(Nc2ncc(Cl)c(Nc3ccccc3C(=O)C(=O)N(C)C)n2)c1
19

Value lookup for Activity (control) % ALK (h); key = COc1cc(Nc2ncc(Cl)c(Nc3ccccc3C(=O)C(=O)N(C)C)n2)ccc1N1CCN(C(C)=O)CC1
6

Fill blank: measured Activity (control) % ALK (h) of the compound CN(C)C/C=C/C(=O)Nc1cccc(Nc2ncc(Cl)c(Nc3ccccc3C(=O)C(=O)N(C)C)n2)c1 is ____.
10

Looking for the measured Activity (control) % ALK (h) of C=CC(=O)Nc1ccc(OC)c(Nc2ncc(Cl)c(Nc3ccccc3C(=O)C(=O)N(CC)CC)n2)c1 , can you help?
9

More entries:
I would be grateful if you could share the reported Activity (control) % ALK (h) for COc1ccc(NC(=O)/C=C/CN2CCOCC2)cc1Nc1ncc(Cl)c(Nc2ccccc2C(=O)C(=O)N(C)C)n1 .
7

Entry under review: C=C(CN(C)CCN(C)C)C(=O)Nc1cccc(Nc2ncc(Cl)c(Nc3ccccc3C(=O)C(=O)N(C)C)n2)c1 . Reported Activity (control) % ALK (h)?
20

# query: Activity (control) % ALK (h) of entry C=CC(=O)Nc1cc(Nc2ncc(C)c(Nc3ccccc3C(=O)C(=O)N(C)C)n2)ccc1OC
35

Activity (control) % ALK (h) for C=CC(=O)Nc1cc(Nc2ncc(Cl)c(Nc3ccccc3C(=O)C(=O)N(C)C)n2)ccc1OC ?
19

Using the record for COc1ccc(NC(=O)/C=C/CN(C)C)cc1Nc1ncc(Cl)c(Nc2ccccc2C(=O)C(=O)N(C)C)n1 , report its Activity (control) % ALK (h).
10

For COc1cc(Nc2ncc(Cl)c(Nc3ccccc3C(=O)C(=O)N(C)C)n2)ccc1N1CCC(N(C)C)CC1 , what is its reported Activity (control) % ALK (h)?
3

Item under review: C=C(CN1CCCC1)C(=O)Nc1ccc(OC)c(Nc2ncc(Cl)c(Nc3ccccc3C(=O)C(=O)N(C)C)n2)c1 . Reported Activity (control) % ALK (h)?
23

Consider the compound C=C(CN(C)C)C(=O)Nc1ccc(OC)c(Nc2ncc(Cl)c(Nc3ccccc3C(=O)C(=O)N(C)C)n2)c1 and give its measured Activity (control) % ALK (h).
36

---

Tested on: HCC827 (EGFR Del) NSCLC cells
measurement.description: Cell proliferation assay (MTS cell viability)
Assay type: cell-based
assay.context: Homo sapiens, 72 h; HCC827 cells, 3 days of exposure, MTS
Criterion: IC50 strictly less than 100 nM. Met: fulfilled. Not met: not fulfilled.

Just wondering, is IC50 of COc1cc(N2CCN(C)CC2)ccc1Nc1ncc(C(F)(F)F)c(Nc2ccccc2C(=O)C(=O)N2CCOCC2)n1 [Example 43] below 100 nM?
not fulfilled

Further cases:
Say whether its IC50 is strictly beneath 100 nM. Entry: COc1cc(Nc2ncc(Cl)c(Nc3ccccc3C(=O)C(=O)N(C)C)n2)ccc1N1CCC(N(C)C)CC1 [Example 118]
fulfilled

Confirm or reject: IC50 of COc1cc(N2CCC(N(C)C)CC2)ccc1Nc1ncc(Cl)c(Nc2ccccc2C(=O)C(=O)NC2CNC2)n1 [Example 24] lies strictly below 100 nM
not fulfilled

Is it true that IC50 reported for C=CC(=O)Nc1cc(Nc2ncc(Cl)c(Nc3ccccc3C(=O)C(=O)N(C)C)n2)c(OC)cc1F [Example 66] is less than 100 nM?
not fulfilled

Confirm or reject: IC50 of CCC(=O)N1CCN(c2ccc(Nc3ncc(Cl)c(Nc4ccccc4C(=O)C(=O)NC)n3)c(OC)c2)CC1 [Example 54] lies strictly below 100 nM
not fulfilled

I wonder whether COc1cc(N2CCC(N(C)C)CC2)ccc1Nc1ncc(Cl)c(Nc2ccccc2C(=O)C(=O)N(C)C)n1 [Example 17] has IC50 below 100 nM. Can you tell?
not fulfilled

Is IC50 strictly under 100 nM for the entry CNC(=O)C(=O)c1ccccc1Nc1nc(Nc2ccc(N3CCN(C)CC3)c(OC)c2)ncc1Cl [Example 60] ?
not fulfilled

Please check: IC50 for C=CC(=O)Nc1cc(Nc2ncc(Cl)c(Nc3ccccc3C(=O)C(=O)N(C)C)n2)ccc1OC [Example 65] , strictly under 100 nM or not?
not fulfilled

IC50 under 100 nM? Item: COc1cc(N2CCC(N(C)C)CC2)ccc1Nc1ncc(Cl)c(Nc2ccccc2C(=O)C(=O)NO)n1 [Example 3]
not fulfilled
